These entries and their values trace back to PubChem BioAssay AID1963422.

IC50 overview
System: 463943-066-T-J2-PDC complex spheroid growth;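 further: compound exposure lasted 7 days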
Assay: Anticancer human tumor 463943-066-T-J2-PDC patient-derived colon adenocarcinoma cell line growth inhibition [Asc]
Conditions: curve of first compound; second compound 0.1 µM

1. O=C(c1ccc(F)c(F)c1Nc1ccc(I)cc1F)N1CC(O)([C@@H]2CCCCN2)C1 + CNC(C)C(=O)NC1CN(S(=O)(=O)c2cccc(S(=O)(=O)N3CCC4CCC(C(=O)NC(c5ccccc5)c5ccccc5)N4C(=O)C(NC(=O)C(C)NC)C3)c2)CCC2CCC(C(=O)NC(c3ccccc3)c3ccccc3)N2C1=O :: 173 nM
2. CCN1CCN(Cc2ccc(Nc3ncc(F)c(-c4cc(F)c5nc(C)n(C(C)C)c5c4)n3)nc2)CC1 + Cc1c(S(C)(=O)=O)c(-c2cc(F)cc(N3CCN(c4ccc(NS(=O)(=O)c5ccc(NC(CCN6CCC(C(=O)OCCCP(=O)(O)O)CC6)CSc6ccccc6)c(S(=O)(=O)C(F)(F)F)c5)cc4)CC3)c2)c(-c2ccc(Cl)cc2)n1C(C)C :: > 1000 nM
3. C#Cc1c(F)ccc2cc(O)cc(-c3ncc4c(N5CC6CCC(C5)N6)nc(OCC56CCCN5CC(F)C6)nc4c3F)c12 (stereo unspecified) + CNC(C)C(=O)NC1CN(S(=O)(=O)c2cccc(S(=O)(=O)N3CCC4CCC(C(=O)NC(c5ccccc5)c5ccccc5)N4C(=O)C(NC(=O)C(C)NC)C3)c2)CCC2CCC(C(=O)NC(c3ccccc3)c3ccccc3)N2C1=O :: > 10000 nM

Please give the measured IC50 for this compound: Cc1nc(N2CCC3(CC2)COC(C)C3N)c(CO)nc1Sc1ccnc(N)c1Cl (stereo unspecified) + Cc1c(S(C)(=O)=O)c(-c2cc(F)cc(N3CCN(c4ccc(NS(=O)(=O)c5ccc(NC(CCN6CCC(C(=O)OCCCP(=O)(O)O)CC6)CSc6ccccc6)c(S(=O)(=O)C(F)(F)F)c5)cc4)CC3)c2)c(-c2ccc(Cl)cc2)n1C(C)C > 3000 nM

// next record C=C(F)C(=O)N1CCN(c2nc(OCC3CCCN3C)nc3c2CCN(c2cccc4cccc(Cl)c24)C3)CC1CC#N (stereo unspecified) + Cc1c(S(C)(=O)=O)c(-c2cc(F)cc(N3CCN(c4ccc(NS(=O)(=O)c5ccc(NC(CCN6CCC(C(=O)OCCCP(=O)(O)O)CC6)CSc6ccccc6)c(S(=O)(=O)C(F)(F)F)c5)cc4)CC3)c2)c(-c2ccc(Cl)cc2)n1C(C)C 4890 nM

Similarly, CNC(C)C(=O)NC1CN(S(=O)(=O)c2cccc(S(=O)(=O)N3CCC4CCC(C(=O)NC(c5ccccc5)c5ccccc5)N4C(=O)C(NC(=O)C(C)NC)C3)c2)CCC2CCC(C(=O)NC(c3ccccc3)c3ccccc3)N2C1=O (stereo unspecified) + Cc1c(S(C)(=O)=O)c(-c2cc(F)cc(N3CCN(c4ccc(NS(=O)(=O)c5ccc(NC(CCN6CCC(C(=O)OCCCP(=O)(O)O)CC6)CSc6ccccc6)c(S(=O)(=O)C(F)(F)F)c5)cc4)CC3)c2)c(-c2ccc(Cl)cc2)n1C(C)C ? > 1000 nM
